test system: LNCaP tumor-transplanted mouse; experiment: Internal radioactivity distribution using LNCaP tumor-transplanted mouse; assay type: in vivo; conditions: 192 h after administration

Molecule	Muscle
O=C([O-])CN1CCN(C(CCC(=O)NCCCC[C@H](NC(=O)N[C@@H](CCC(=O)O)C(=O)O)C(=O)O)C(=O)[O-])CCN(CC(=O)[O-])CCN(C(CCC(=O)N[C@@H](CCCCNC(=O)CCCc2ccc(I)cc2)C(=O)O)C(=O)[O-])CC1.[111In+3] (stereo partly shown) [[^111In]In-PSMA-DA1]	0.15 ± 0.05 % ID/g
O=C([O-])CN(Cc1cccc(C(=O)[O-])n1)C[C@H](Cc1ccc(NC(=O)[C@H](CCCCNC(=O)CCC(=O)NCCCC[C@H](NC(=O)N[C@@H](CCC(=O)O)C(=O)O)C(=O)O)NC(=O)COCCOCCOCC(=O)N[C@@H](CCCCNC(=O)CCCc2ccc(I)cc2)C(=O)O)cc1)N(CC(=O)[O-])Cc1cccc(C(=O)[O-])n1.[111In+3] [[^111In]In-Octapa-3]	0.01 ± 0.02 % ID/g
O=C([O-])CN1CCN(C(CCC(=O)NCCCC[C@H](NC(=O)N[C@@H](CCC(=O)O)C(=O)O)C(=O)O)C(=O)[O-])CCN(CC(=O)[O-])CCN(C(CCC(=O)Nc2ccccc2)C(=O)[O-])CC1.[111In+3] (stereo partly shown) [[^111In]In-PSMA-DB, reference compound]	0.14 ± 0.09 % ID/g
O=C([O-])CN(CCN(CCc1ccc(NC(=O)CCCCCNC(=O)CCC(=O)NCCCC[C@H](NC(=O)N[C@@H](CCC(=O)O)C(=O)O)C(=O)O)cc1)CCN(CC(=O)[O-])Cc1cccc(C(=O)[O-])n1)Cc1cccc(C(=O)[O-])n1.[111In+3] [[^111In]In-Neunpa-1, reference compound]	0.07 % ID/g

* * *

system: LNCaP tumor-transplanted mouse; assay: Internal radioactivity distribution using LNCaP tumor-transplanted mouse; type: in vivo; conditions: 1 h after administration
Quantity kind: Stomach (% ID)

Compound	Value measured
O=C(O)CC[C@H](NC(=O)N[C@@H](CCCCNC(=O)[C@H](Cc1ccc2ccccc2c1)NC(=O)[C@H]1CC[C@H](CNC(=O)CCC(C(=O)O)N2CCN(CC(=O)O)CCN(C(CCC(=O)N[C@@H](CCCCNC(=O)CCCc3ccc(I)cc3)C(=O)O)C(=O)O)CCN(CC(=O)O)CC2)CC1)C(=O)O)C(=O)O (stereo partly drawn) [[^111In]In-PSMA-NAT-DA1, metal not drawn]	0.94
O=C([O-])CN1CCN(C(CCC(=O)NCCCC[C@H](NC(=O)N[C@@H](CCC(=O)O)C(=O)O)C(=O)O)C(=O)[O-])CCN(CC(=O)[O-])CCN(C(CCC(=O)Nc2ccccc2)C(=O)[O-])CC1.[111In+3] (stereo partly drawn) [[^111In]In-PSMA-DB, reference compound]	0.10
O=C([O-])CN(Cc1cccc(C(=O)[O-])n1)C[C@H](Cc1ccc(NC(=O)[C@H](CCCCNC(=O)CCC(=O)NCCCC[C@H](NC(=O)N[C@@H](CCC(=O)O)C(=O)O)C(=O)O)NC(=O)COCCOCCOCC(=O)N[C@@H](CCCCNC(=O)CCCc2ccc(I)cc2)C(=O)O)cc1)N(CC(=O)[O-])Cc1cccc(C(=O)[O-])n1.[111In+3] [[^111In]In-Octapa-3]	0.49

* * *

Test system: LNCaP tumor-transplanted mouse
Experiment: Internal radioactivity distribution using LNCaP tumor-transplanted mouse
Assay type: in vivo
Details: 48 h after administration
Method: The animal test was performed in compliance with the guidelines of Kyoto University Animal Experiment Committee. […] LNCaP or PC-3 tumor-implanted mice were administered saline solutions (185 kBq, 100 μL) of [^111In]In-PSMA-DA1 or [^111In]In-PSMA-DB from the tail vein (n=3 each). […] Thereafter, blood and each organ were recovered, and the mass and radioactivity of the organs were measured. […]
Kindly apply the following: yes if Spleen is less than 3 % ID/g, no in every other case.

Compound	Discrete label
O=C([O-])CN(Cc1cccc(C(=O)[O-])n1)C[C@H](Cc1ccc(NC(=O)[C@H](CCCCNC(=O)CCC(=O)NCCCC[C@H](NC(=O)N[C@@H](CCC(=O)O)C(=O)O)C(=O)O)NC(=O)CCCc2ccc(I)cc2)cc1)N(CC(=O)[O-])Cc1cccc(C(=O)[O-])n1.[111In+3] [[^111In]In-Octapa-2]	yes
O=C([O-])CN(Cc1cccc(C(=O)[O-])n1)C[C@H](Cc1ccc(NC(=O)CCCCCNC(=O)CCC(=O)NCCCC[C@H](NC(=O)N[C@@H](CCC(=O)O)C(=O)O)C(=O)O)cc1)N(CC(=O)[O-])Cc1cccc(C(=O)[O-])n1.[111In+3] [[^111In]In-Octapa-1, reference compound]	yes
O=C([O-])CN(CCN(CCc1ccc(NC(=O)CCCCCNC(=O)CCC(=O)NCCCC[C@H](NC(=O)N[C@@H](CCC(=O)O)C(=O)O)C(=O)O)cc1)CCN(CC(=O)[O-])Cc1cccc(C(=O)[O-])n1)Cc1cccc(C(=O)[O-])n1.[111In+3] [[^111In]In-Neunpa-1, reference compound]	yes
O=C([O-])CN1CCN(C(CCC(=O)NCCCC[C@H](NC(=O)N[C@@H](CCC(=O)O)C(=O)O)C(=O)O)C(=O)[O-])CCN(CC(=O)[O-])CCN(C(CCC(=O)Nc2ccccc2)C(=O)[O-])CC1.[111In+3] (some centres unmarked) [[^111In]In-PSMA-DB, reference compound]	yes
O=C([O-])CN1CCN(C(CCC(=O)NCCC(=O)N2Cc3ccccc3-c3c(nnn3CCOCCOCCOCCOCCC(=O)NCCCC[C@H](NC(=O)N[C@@H](CCC(=O)O)C(=O)O)C(=O)O)-c3ccccc32)C(=O)[O-])CCN(CC(=O)[O-])CCN(C(CCC(=O)N[C@@H](CCCCNC(=O)CCCc2ccc(I)cc2)C(=O)O)C(=O)[O-])CC1.[111In+3] (some centres unmarked) [[^111In]In-PtDA]	no
O=C([O-])CN1CCN(C(CCC(=O)NCCCC[C@H](NC(=O)N[C@@H](CCC(=O)O)C(=O)O)C(=O)O)C(=O)[O-])CCN(CC(=O)[O-])CCN(C(CCC(=O)N[C@@H](CCCCNC(=O)CCCc2ccc(I)cc2)C(=O)O)C(=O)[O-])CC1.[111In+3] (some centres unmarked) [[^111In]In-PSMA-DA1]	no
O=C([O-])CN(CCN(CCc1ccc(NC(=O)[C@H](CCCCNC(=O)CCC(=O)NCCCC[C@H](NC(=O)N[C@@H](CCC(=O)O)C(=O)O)C(=O)O)NC(=O)CCCc2ccc(I)cc2)cc1)CCN(CC(=O)[O-])Cc1cccc(C(=O)[O-])n1)Cc1cccc(C(=O)[O-])n1.[111In+3] [[^111In]In-Neunpa-2]	yes
O=C([O-])CN(Cc1cccc(C(=O)[O-])n1)C[C@H](Cc1ccc(NC(=O)[C@H](CCCCNC(=O)CCC(=O)NCCCC[C@H](NC(=O)N[C@@H](CCC(=O)O)C(=O)O)C(=O)O)NC(=O)COCCOCCOCC(=O)N[C@@H](CCCCNC(=O)CCCc2ccc(I)cc2)C(=O)O)cc1)N(CC(=O)[O-])Cc1cccc(C(=O)[O-])n1.[111In+3] [[^111In]In-Octapa-3]	yes

* * *

Tested on: LNCaP tumor-transplanted mouse
Assay: Internal radioactivity distribution using LNCaP tumor-transplanted mouse
Type: in vivo
Conditions: 24 h after administration
Method: The animal test was performed in compliance with the guidelines of Kyoto University Animal Experiment Committee. […] LNCaP or PC-3 tumor-implanted mice were administered saline solutions (185 kBq, 100 μL) of [^111In]In-PSMA-DA1 or [^111In]In-PSMA-DB from the tail vein (n=3 each). […] Thereafter, blood and each organ were recovered, and the mass and radioactivity of the organs were measured. […]

Molecule	Measured on	Unit of measurement	Blood
O=C([O-])CN(Cc1cccc(C(=O)[O-])n1)C[C@H](Cc1ccc(NC(=O)[C@H](CCCCNC(=O)CCC(=O)NCCCC[C@H](NC(=O)N[C@@H](CCC(=O)O)C(=O)O)C(=O)O)NC(=O)CCCc2ccc(I)cc2)cc1)N(CC(=O)[O-])Cc1cccc(C(=O)[O-])n1.[111In+3] [[^111In]In-Octapa-2]	LNCaP tumor-transplanted mouse	% ID/g	0.84
O=C([O-])CN(CCN(CCc1ccc(NC(=O)CCCCCNC(=O)CCC(=O)NCCCC[C@H](NC(=O)N[C@@H](CCC(=O)O)C(=O)O)C(=O)O)cc1)CCN(CC(=O)[O-])Cc1cccc(C(=O)[O-])n1)Cc1cccc(C(=O)[O-])n1.[111In+3] [[^111In]In-Neunpa-1, reference compound]	LNCaP tumor-transplanted mouse	% ID/g	0.20
O=C([O-])CN(CCN(CCc1ccc(NC(=O)[C@H](CCCCNC(=O)CCC(=O)NCCCC[C@H](NC(=O)N[C@@H](CCC(=O)O)C(=O)O)C(=O)O)NC(=O)CCCc2ccc(I)cc2)cc1)CCN(CC(=O)[O-])Cc1cccc(C(=O)[O-])n1)Cc1cccc(C(=O)[O-])n1.[111In+3] [[^111In]In-Neunpa-2]	LNCaP tumor-transplanted mouse	% ID/g	2.48
O=C([O-])CN(Cc1cccc(C(=O)[O-])n1)C[C@H](Cc1ccc(NC(=O)CCCCCNC(=O)CCC(=O)NCCCC[C@H](NC(=O)N[C@@H](CCC(=O)O)C(=O)O)C(=O)O)cc1)N(CC(=O)[O-])Cc1cccc(C(=O)[O-])n1.[111In+3] [[^111In]In-Octapa-1, reference compound]	LNCaP tumor-transplanted mouse	% ID/g	0.02
O=C([O-])CN1CCN(C(CCC(=O)NCCC(=O)N2Cc3ccccc3-c3c(nnn3CCOCCOCCOCCOCCC(=O)NCCCC[C@H](NC(=O)N[C@@H](CCC(=O)O)C(=O)O)C(=O)O)-c3ccccc32)C(=O)[O-])CCN(CC(=O)[O-])CCN(C(CCC(=O)N[C@@H](CCCCNC(=O)CCCc2ccc(I)cc2)C(=O)O)C(=O)[O-])CC1.[111In+3] (stereo partly drawn) [[^111In]In-PtDA]	LNCaP tumor-transplanted mouse	% ID/g	12.5
O=C([O-])CN(Cc1cccc(C(=O)[O-])n1)C[C@H](Cc1ccc(NC(=O)[C@H](CCCCNC(=O)CCC(=O)NCCCC[C@H](NC(=O)N[C@@H](CCC(=O)O)C(=O)O)C(=O)O)NC(=O)COCCOCCOCC(=O)N[C@@H](CCCCNC(=O)CCCc2ccc(I)cc2)C(=O)O)cc1)N(CC(=O)[O-])Cc1cccc(C(=O)[O-])n1.[111In+3] [[^111In]In-Octapa-3]	LNCaP tumor-transplanted mouse	% ID/g	7.20
